- system.name: Jak2 (UniProt O60674)
- Sequence (O60674 whole entry, looked up): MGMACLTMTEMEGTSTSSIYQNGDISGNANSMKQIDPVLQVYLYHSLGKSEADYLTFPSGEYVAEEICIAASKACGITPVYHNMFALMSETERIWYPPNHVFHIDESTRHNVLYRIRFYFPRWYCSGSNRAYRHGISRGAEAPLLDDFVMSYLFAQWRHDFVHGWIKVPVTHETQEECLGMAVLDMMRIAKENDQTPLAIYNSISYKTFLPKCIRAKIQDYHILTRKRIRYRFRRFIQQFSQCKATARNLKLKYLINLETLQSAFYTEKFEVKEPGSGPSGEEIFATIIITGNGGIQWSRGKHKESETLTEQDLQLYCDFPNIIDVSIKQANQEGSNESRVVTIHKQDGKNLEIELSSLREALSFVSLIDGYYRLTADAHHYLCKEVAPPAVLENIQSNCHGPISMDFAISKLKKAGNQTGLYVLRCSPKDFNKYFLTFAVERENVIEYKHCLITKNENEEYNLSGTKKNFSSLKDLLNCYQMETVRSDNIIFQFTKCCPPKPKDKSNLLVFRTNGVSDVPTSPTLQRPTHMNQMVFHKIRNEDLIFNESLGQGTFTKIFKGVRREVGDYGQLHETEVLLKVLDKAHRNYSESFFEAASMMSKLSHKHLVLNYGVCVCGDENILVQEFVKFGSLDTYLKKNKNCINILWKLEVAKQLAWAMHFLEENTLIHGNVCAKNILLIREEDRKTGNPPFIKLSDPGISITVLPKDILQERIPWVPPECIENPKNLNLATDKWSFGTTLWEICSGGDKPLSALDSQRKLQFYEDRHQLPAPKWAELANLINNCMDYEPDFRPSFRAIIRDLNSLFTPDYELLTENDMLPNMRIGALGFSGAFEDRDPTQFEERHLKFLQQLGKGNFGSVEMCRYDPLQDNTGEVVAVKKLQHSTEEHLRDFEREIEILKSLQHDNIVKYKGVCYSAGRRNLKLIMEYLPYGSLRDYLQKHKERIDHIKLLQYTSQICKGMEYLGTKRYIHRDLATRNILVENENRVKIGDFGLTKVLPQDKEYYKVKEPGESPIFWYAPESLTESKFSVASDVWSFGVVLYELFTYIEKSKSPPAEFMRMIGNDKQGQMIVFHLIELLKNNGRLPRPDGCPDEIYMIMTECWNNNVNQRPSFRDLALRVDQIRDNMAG
- protocol.summary: phosphorylation enrichment, bacterial display (enrichment ratio); higher = better substrate or ligand; peptides without Tyr show the background;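 note: 11-residue human phosphosite peptides and single-mutation variants displayed on the E. coli surface, counted by deep sequencing, each peptide's frequency after selection divided by its frequency in the unselected input library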;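 note: frequency after pTyr selection over input frequency; kinase dosed for 20-30% of maximal phosphorylation in three min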
Record form. Attribute: phosphorylation enrichment. Fill in for each entry.
Answers are plain numbers.

Would you please look over these solved cases?
{"sequence.chain": "ALWYIYLHTRS [ENG_Y614_S615L]", "endpoint.result": 1.09}
{"sequence.chain": "TRSCKYLLLSM [NF1_Y491_Y489C]", "endpoint.result": 0.864}
{"sequence.chain": "MHDKEYFSVHN [MET_Y1234_Y1230H_YF]", "endpoint.result": 0.921}
{"sequence.chain": "GTATTYLCGVK [ALPL_Y117_A116T]", "endpoint.result": 0.946}

Moving on to the next sequence.
Data request: Name the recorded phosphorylation enrichment of HKLSFCEFDFE [BTK_Y40_Y40C_YF] , assay system Jak2 (UniProt O60674).
Data returned: 2.48

The reported numbers originate from the supplement of paper PMC10065799.
